Reference source: PubChem BioAssay (NCI)

- Test system: UO-31 renal
- protocol-notes: NCI-60 one-dose screen, 48 h
- study-conditions: 10 µM unless noted
The panel holds about 83,000 compounds, 20% with a hit somewhere; the sample as a whole holds those more often. Calls of active or inactive are those of the source. The calls were made as follows: active = growth percent below 10; inactive = the rest.
// classify into active, inactive

molecule: CCCCCCCCCCSc1ncnc2nc[nH]c12
tgt: UO-31 renal
answer-label: inactive

What did this assay record as the result for `Nc1nc(N)c([N+](=O)[O-])c(=O)[nH]1` ?
inactive

Quick one: `COc1ccc(-c2cc(Cc3cccs3)c(=O)n(Cn3ccc4ccccc43)n2)cc1`
inactive

Quick one: Clc1ccc(CCC(Cn2ccnc2)Sc2c(Cl)cccc2Cl)cc1 (centres undefined)
inactive

Quick one: `O=C(/C=C/c1ccc(Cl)cc1)c1ccccc1`
inactive

Quick one: `O=[N+]([O-])c1ccc2c(c1)S(=O)c1cc([N+](=O)[O-])ccc1N2`
inactive

Quick one: `COC(=O)[C@]1(CCSC)N[C@H](c2cn(-c3ccccc3)nc2C)[C@@H]2C(=O)N(c3ccc(C)cc3)C(=O)[C@@H]21`
inactive

Quick one: `Cc1cc(C)n2nc(SCC(=O)Nc3sc4c(c3C(N)=O)CCC4)nc2n1`
inactive

Quick one: `CC(c1cc(Cl)ccc1O)c1cc(Cl)ccc1O`
active

Quick one: `COc1cc(/C=C/C(=O)Nc2ccc3c(c2)/C(=C\c2cccn2C)C(=O)N3)cc(OC)c1OC`
inactive

###

- Test system: SN12C renal
- protocol-notes: NCI-60 one-dose screen, 48 h
- study-conditions: 10 µM unless noted
Compounds without any hit were thinned out: in the full panel of roughly 83,000, 20% have a hit. The source made the active and inactive calls. Rule for the calls: active = growth percent below 10; inactive = the rest.
// classify into active, inactive

compound: O=C(Nc1ccc(Cl)cc1)c1cc2c(cc1O)[nH]c1ccccc12
answer-label: inactive

compound: C=Cc1nn2c(CCC(=O)c3nc4ccccc4[nH]3)nnc2s1
answer-label: inactive

compound: CCN(CC)c1ccc(CN(CC(=O)c2ccc(Cl)c(Cl)c2)Cc2ccccc2)cc1
answer-label: inactive

What did this assay record as the result for `COc1cc(/C=C/C(=O)c2c(-c3ccc(Cl)cc3)nc3sc(C)nn23)cc(OC)c1OC` ?
inactive

Quick one: `Cc1ccc([N+](=O)[O-])cc1NC(=O)Nc1cccc(F)c1`
inactive

Quick one: `Cc1c(N(C)CS(=O)(=O)O)c(=O)n(-c2ccccc2)n1C`
inactive

Quick one: `COc1c(C)c2c(c(O)c1C/C=C(\C)CCC(=O)OCCN1CCOCC1)C(=O)OC2`
inactive

###

- System: M14 melanoma
- protocol-notes: NCI-60 one-dose screen, 48 h (100 = growth as untreated, 0 = no growth, -100 = all killed)
- study-conditions: 10 µM unless noted
This is part of a sample that, as a whole, favours compounds with a hit. Of some 83,000 tested, about 20% had one in any assay.
For each record, write down the corresponding growth.
Numbers only, in %.

Consider the reported growth for these compounds:
compound: Clc1ccc([C@@H]2C[C@@H]3Cc4cc(Br)c5ccccc5c4N2O3)c(Cl)c1
value-measured: 75.6
//
compound: CCOc1cccc(C2CC(=O)Nc3cc4c(cc32)OCO4)c1 (stereo not drawn)
value-measured: 102

# map each compound to its growth
1. NCCCc1nnc(CCC(=O)c2nc3ccccc3[nH]2)o1
2. CCN(CC)CCCCNc1c2ccccc2[n+](C)c2c1[nH]c1ccccc12
3. CC(=O)c1nc2ccccc2n1CCn1cc(CC(N)C(=O)O)c2ccccc21 (stereo not drawn)
4. O=Cc1c[nH]c2ccc(NC(=O)OCc3ccccc3)cc12
5. CC(C)C(=O)Cc1cnccn1

109
-28.4
103
105
112

# map each compound to its growth
1. CN1C(=O)/C(=C/c2nc(-c3cccc(F)c3)n3ccccc23)c2ccccc21
2. CC(C)C/C(=N\NC(=O)c1ccncc1)c1cc(Cl)ccc1O
3. O=c1cc(-c2cccnc2)oc2c1ccc1ccccc12
4. COc1cc(/C=C/C(=O)c2c(-c3ccc(F)cc3)nc3sc(C)nn23)cc(OC)c1OC

1. 73.1
2. 2.19
3. 103
4. 34.9

# map each compound to its growth
1. COc1cc(C2NC(c3ccc(Cl)cc3)C(C)/C(=N/NC(N)=S)C2C)cc(OC)c1OC (stereo not drawn)
2. Cc1cc2c(cc1C)Nc1sc(NC(=O)CN3CCN(C)CC3)nc1C(=O)N2

1. 92.7
2. 103
